Cited source: patent US20240415840A1

test: In vivo rat CNS protocol: brain, CSF and plasma concentrations after IV dosing; details: male, rat, plasma (unbound), intravenous, calculated using rat plasma in vitro unbound fraction; 4 h; individual rats 1001-1004; read-out: Plasma free (unbound) concentration, 4 h
measurement_type: concentration at 4 h

Form field: reported concentration at 4 h of CC(C)Oc1c(-c2cn[nH]c2)ncn2nc(NC3CCOCC3)nc12
1110 nM

----------
experiment: In vivo rat CNS protocol: brain, CSF and plasma concentrations after IV dosing; settings: male, rat, CSF, iv, male rats, IV infusion; 4 h; individual rats 1001-1004; read-out: CSF concentration, 4 h
measurement_type: concentration at 4 h (nM)
Answers are plain numbers, in nM.

Form field: reported concentration at 4 h of CC(C)Oc1c(-c2cn[nH]c2)ncn2nc(NC3CCOCC3)nc12 [Example 1]
604

----------
assay: In vitro permeability studies using Caco-2 cells; format: in vitro ADME; conditions: human, A-B
measurement_type: Papp A→B (×10⁻⁶ cm/s)
Numbers only, in ×10⁻⁶ cm/s.

Form field: reported Papp A→B of CC(C)Oc1c(-c2cn[nH]c2)ncn2nc(NC3CCOCC3)nc12 [Example 1]
16

----------
experiment: In vivo rat CNS protocol: brain, CSF and plasma concentrations after IV dosing; settings: male, rat, CSF / unbound plasma, intravenous, 4 h; mean; read-out: CSF/unbound plasma concentration (%), mean
measurement_type: Kp at 4 h
One number for each entry.

Form field: reported Kp at 4 h of CC(C)Oc1c(-c2cn[nH]c2)ncn2nc(NC3CCOCC3)nc12
0.43

----------
assay: In vivo rat CNS protocol: brain, CSF and plasma concentrations after IV dosing; conditions: male, rat, plasma, intravenous, male rats (n=4), IV bolus 2.0 mg/kg then IV infusion 1.2 mg/kg/h for 4 h; 2 h; mean ± SD; read-out: Plasma total concentration, 2 h, mean
measurement_type: concentration at 2 h (nM)
Answers are plain numbers, in nM.

Form field: reported concentration at 2 h of CC(C)Oc1c(-c2cn[nH]c2)ncn2nc(NC3CCOCC3)nc12 [Example 1]
1460

----------
test: In vivo rat CNS protocol: brain, CSF and plasma concentrations after IV dosing; settings: male, rat, brain / plasma, intravenous, 4 h; individual rats 1001-1004; read-out: Brain/Plasma (%)
measurement_type: Kp at 4 h

Form field: reported Kp at 4 h of CC(C)Oc1c(-c2cn[nH]c2)ncn2nc(NC3CCOCC3)nc12 [Example 1]
0.7

----------
assay: In vivo rat CNS protocol: brain, CSF and plasma concentrations after IV dosing; details: male, rat, brain, iv, male rats, IV infusion; 4 h; individual rats 1001-1004; read-out: Brain concentration, 4 h
measurement_type: concentration at 4 h
Kindly write the number and append the unit.

Form field: reported concentration at 4 h of CC(C)Oc1c(-c2cn[nH]c2)ncn2nc(NC3CCOCC3)nc12
1360 nM

----------
assay: In vivo rat CNS protocol: brain, CSF and plasma concentrations after IV dosing; conditions: male, rat, CSF, iv, male rats (n=4), IV infusion; 4 h; mean ± SD; read-out: CSF concentration, 4 h, mean
measurement_type: concentration at 4 h (nM)
Answers are plain numbers, in nM.

Form field: reported concentration at 4 h of CC(C)Oc1c(-c2cn[nH]c2)ncn2nc(NC3CCOCC3)nc12
579

----------
experiment: In vivo rat CNS protocol: brain, CSF and plasma concentrations after IV dosing; conditions: male, rat, brain, iv, male rats (n=4), IV infusion; 4 h; mean ± SD; read-out: Brain concentration, 4 h, mean
measurement_type: concentration at 4 h

Form field: reported concentration at 4 h of CC(C)Oc1c(-c2cn[nH]c2)ncn2nc(NC3CCOCC3)nc12 [Example 1]
1740 nM

----------
assay: In vivo rat CNS protocol: brain, CSF and plasma concentrations after IV dosing; conditions: male, rat, plasma (unbound), intravenous, calculated using rat plasma in vitro unbound fraction; 4 h; mean ± SD; read-out: Plasma free (unbound) concentration, 4 h, mean
measurement_type: concentration at 4 h (nM)
Give bare numbers, in nM.

Form field: reported concentration at 4 h of CC(C)Oc1c(-c2cn[nH]c2)ncn2nc(NC3CCOCC3)nc12
1370
